Test system: BT-549 breast
ASSAY: NCI-60 one-dose screen, 48 h
ASSAY_CONTEXT: 10 µM
The panel holds about 83,000 compounds, 20% with a hit somewhere; the sample as a whole holds those more often. The source made the active and inactive calls. Rule for the calls: active = growth percent below 10; inactive = the rest.
Please state which outcome applies, choosing from 1 (yes) for active, 0 (no) for inactive

Solved cases below.
COMPOUND: O=c1[nH]c2ccccc2cc1CSc1ccc(Nc2nccc(-c3ccc4ccccc4c3)n2)cc1
QUALITATIVE_LABEL: 0 (no)

COMPOUND: Cc1noc2c(Cc3ccc([N+](=O)[O-])cc3)nn(CC(=O)N/N=C/c3ccc(Cl)cc3)c(=O)c12
QUALITATIVE_LABEL: 0 (no)

COMPOUND: O=C1NC(=NC23CC4CC(CC(C4)C2)C3)N/C1=C\c1ccc2ncccc2n1
QUALITATIVE_LABEL: 1 (yes)

COMPOUND: O=C1Nc2cc(Cl)ccc2/C1=C/c1ccc(OCc2ccc(Br)cc2F)cc1
QUALITATIVE_LABEL: 1 (yes)

query: Short answer needed: outcome of this test for O=C(CNc1nc(-c2ccccc2)cs1)Nc1ccc(Cl)cc1[N+](=O)[O-] ?
result: 1 (yes)

query: Identify the outcome logged in this assay for the compound shown: O=C(CSc1nnc(-c2c[nH]c3ccccc23)n1-c1ccccc1)c1ccccc1
result: 0 (no)

query: Identify the outcome logged in this assay for the compound shown: C=C[C@H]1[C@H](O[C@@H]2OC(CO)[C@@H](O)[C@H](O)C2OC(=O)c2c(O)cc(O)cc2-c2cccc(O)c2)OC=C2C(=O)OCC[C@H]21 (some centres undefined)
result: 0 (no)

query: Which outcome was assigned to O=C(CNc1nc(-c2ccccc2)cs1)Nc1ccc(Cl)cc1 in this test?
result: 1 (yes)

query: Could you check what this test reported for Cc1ccc2nc3c(nc2c1)c1cc(I)ccc1n3CCN(C)C ?
result: 0 (no)

query: Recorded test outcome, item CC(=O)Nc1nc(-c2ccc(N3CCN(C)CC3)c(NS(=O)(=O)c3ccc(C(F)(F)F)cc3)c2)cs1
result: 1 (yes)

====

For each record, write down the corresponding growth.
System: NCI-H23 lung
ASSAY: NCI-60 one-dose screen, 48 h (100 = growth as untreated, 0 = no growth, -100 = all killed)
ASSAY_CONTEXT: 10 µM
About 83,000 compounds went through this panel and 20% of them were active in at least one assay; those are over-represented in the sample as a whole.
Answers are plain numbers, in %.

Answered examples (6):
COMPOUND: O=c1[nH][nH]c(Nc2ccccc2)c1N=Nc1ccc(F)cc1
TEST_READOUT: growth
RECORDED_MEASUREMENT: 102

COMPOUND: COc1ccc(-c2ccc(/C=N/NC(=O)c3[nH]c4ccc(Br)cc4c3-c3ccccc3)o2)cc1
TEST_READOUT: growth
RECORDED_MEASUREMENT: 50

COMPOUND: COc1cccc(C(N)=Nc2ccc(OCCCCCCn3cncn3)cc2)c1
TEST_READOUT: growth
RECORDED_MEASUREMENT: 21.1

COMPOUND: Cc1ccc(/C=C/C(=O)c2ccc(NC(=O)CSc3nnc(-c4c[nH]c5ccccc45)n3-c3ccccc3)cc2)cc1
TEST_READOUT: growth
RECORDED_MEASUREMENT: 74.3

COMPOUND: CN1CCCN(Cc2ccc(C(=O)Nc3cccc(Nc4ccc5cc(O)ccc5n4)c3)cc2C(F)(F)F)CC1
TEST_READOUT: growth
RECORDED_MEASUREMENT: 68.8

COMPOUND: Cc1cc(C(F)(F)F)ccc1C(=O)Nc1sc2c(c1C#N)CCC(=O)C2
TEST_READOUT: growth
RECORDED_MEASUREMENT: -28.3

Hey, can you go through the list below and give me growth for every item?
1. COc1ccc2c3nc4cc(C)c(C)cc4nc3n(CCN(C)C)c2c1
2. COC(=O)CC1CC1C1Cc2c(nc(N(C)S(C)(=O)=O)nc2C(C)C)-c2ccc(F)cc21 (stereo not given)
3. Cc1cccc2cc(-c3cc(-c4ccccc4)nc(=O)[nH]3)c(Cl)nc12
4. COc1cccc(-c2ccnc(/N=C(\N)Nc3ccc(S(=O)(=O)Nc4nc(C)cc(C)n4)cc3)n2)c1

result:
1. 8.28
2. 69.1
3. 88.7
4. 98.2

Please supply growth for each of the following items, keeping them in order.
1. CN1C(=O)/C(=C/c2nccs2)SC1=S
2. O=C(c1ccc(-n2c(=O)[nH]c3ccccc3c2=O)cc1)N1CCOCC1
3. S=c1nc(-c2ccccc2)cc(-c2cc3ccccc3nc2Cl)[nH]1
4. O=C(Nc1ccc(Cl)c([N+](=O)[O-])c1)Nc1ccc(Cl)c([N+](=O)[O-])c1
5. CC(=O)Nc1ccc(-c2cn(-c3cccc(C(=O)Nc4ccc(F)c(C(F)(F)F)c4)c3)nn2)cn1
6. COc1ccc2c(c1)N=C(C(=O)O)/C2=C/c1sc(Nc2ccc(O)cc2)nc1O
7. COc1cc(OC(F)(F)F)ccc1C(=O)Nc1sc2c(c1C#N)CCC(=O)C2
8. CC(=O)C1=C(C)NC(SCC(=O)Nc2ccc(S(=O)(=O)Nc3cc(C)on3)cc2)=NC1c1ccccc1 (stereo not given)

result:
[80.8, 116, 78.5, -14.3, 23.6, 71.6, 54.5, 102]

Please go through the list and note growth for each compound.
1. COc1ccc(C(C)=C(c2ccc(OCCCN(C)C)cc2)c2ccc(OCCCN(C)C)cc2)cc1
2. CC(C)CCSc1nc(NC2CC2)c(C#N)c(-c2ccc(C(C)C)cc2)n1

result:
1: -95.6; 2: 101
